assay: Stability of stock and working solutions stored 2 weeks at 4°C; format: physicochemical; settings: 2 weeks at 4°C; medium level (120 ng/mL isovanillin, periplocin; 24 ng/mL scopoletin, periplogenin, periplocymarin)
readout_type: Working solution stability, Accuracy (%)
Write the value in % as a bare number.

- C[C@]12CC[C@H](O)C[C@@]1(O)CC[C@@H]1[C@@H]2CC[C@]2(C)[C@@H](C3=CC(=O)OC3)CC[C@]12O: 99.4
- COC1CC(OC2CCC3(C)C4CCC5(C)C(C6=CC(=O)OC6)CCC5(O)C4CCC3(O)C2)OC(C)C1OC1OC(CO)C(O)C(O)C1O (stereo not shown): 98.9
- COc1ccc(C=O)cc1O: 96.1

Proceeding to the next compound to report its Working solution stability, Accuracy.
INPUT: Returns the measured Working solution stability, Accuracy for the input compound. Input: CO[C@H]1C[C@H](O[C@H]2CC[C@]3(C)[C@H]4CC[C@]5(C)[C@@H](C6=CC(=O)OC6)CC[C@]5(O)[C@@H]4CC[C@]3(O)C2)O[C@H](C)[C@H]1O
OUTPUT: 95.1

###

assay: Pharmacokinetic study in rats after oral administration of cortex periplocae extract (plasma LC-MS/MS); format: in vivo, rat; conditions: rat; male Sprague-Dawley rats, oral cortex periplocae extract 18.9 g/kg, plasma, n = 6, mean ± SD
readout_type: half-life
I'd appreciate it if you wrote the number followed by its unit.

INPUT: Returns the measured half-life for the input compound. Input: COc1cc2ccc(=O)oc2cc1O
OUTPUT: 11.4 min

###

As shown below, each of these compounds has a reported AUC value.
assay: Pharmacokinetic study in rats after oral administration of cortex periplocae extract (plasma LC-MS/MS); type: in vivo, rat; conditions: rat, in vivo; male Sprague-Dawley rats, oral cortex periplocae extract 18.9 g/kg, plasma, 0-48 h, n = 6, mean ± SD; read-out: AUC(0-tn)
Write the value in ng·h/mL as a bare number.

These recorded examples may help you get a feel for the data.
• CO[C@H]1C[C@H](O[C@H]2CC[C@]3(C)[C@H]4CC[C@]5(C)[C@@H](C6=CC(=O)OC6)CC[C@]5(O)[C@@H]4CC[C@]3(O)C2)O[C@H](C)[C@H]1O [periplocymarin] = 1690
• COC1CC(OC2CCC3(C)C4CCC5(C)C(C6=CC(=O)OC6)CCC5(O)C4CCC3(O)C2)OC(C)C1OC1OC(CO)C(O)C(O)C1O (stereo not drawn) [periplocin] = 83

Proceeding to the next compound to report its AUC.
INPUT: Returns the measured AUC for the input compound. Input: COc1cc2ccc(=O)oc2cc1O [scopoletin]
OUTPUT: 103

###

assay: Pharmacokinetic study in rats after oral administration of cortex periplocae extract (plasma LC-MS/MS); type: in vivo, rat; conditions: male, Sprague-Dawley, rat, plasma, po, 18.9 g/kg, male Sprague-Dawley rats, oral cortex periplocae extract 18.9 g/kg, plasma, n = 6, mean ± SD; read-out: Cmax
readout_type: Cmax (ng/mL)
Write the value in ng/mL as a bare number.

INPUT: Returns the measured Cmax for the input molecule. Input: COc1cc2ccc(=O)oc2cc1O [scopoletin]
OUTPUT: 178

###

As shown below, each of these compounds has a reported half-life value.
assay: Pharmacokinetic study in rats after oral administration of cortex periplocae extract (plasma LC-MS/MS); format: in vivo, rat; details: male, Sprague-Dawley, rat, in vivo, po, 18.9 g/kg, male Sprague-Dawley rats, oral cortex periplocae extract 18.9 g/kg, plasma, n = 6, mean ± SD
Write the value in h as a bare number.

* CO[C@H]1C[C@H](O[C@H]2CC[C@]3(C)[C@H]4CC[C@]5(C)[C@@H](C6=CC(=O)OC6)CC[C@]5(O)[C@@H]4CC[C@]3(O)C2)O[C@H](C)[C@H]1O | 30.2

Proceeding to the next compound to report its half-life.
INPUT: Returns the measured half-life for the input compound. Input: COC1CC(OC2CCC3(C)C4CCC5(C)C(C6=CC(=O)OC6)CCC5(O)C4CCC3(O)C2)OC(C)C1OC1OC(CO)C(O)C(O)C1O (centres unmarked)
OUTPUT: 1.21
